Origin of values: a melting point compilation (Tetko et al.; mined from patent text by program, amines drawn as free bases though some values may be those of a salt)

The reader will find reported melting point values listed item by item below.

Worked set:
- compound: "CCCN1C(=O)CN(C)C1S(=O)(=O)N=NC(=O)Nc1nc(OC)cc(OC)n1 (stereo not given)"
  measuredResult: "96 to 98 °C"
- compound: "C=CC(=O)OCCOC(=O)Cc1cc(O)n2ncnc2n1"
  measuredResult: "108 to 109 °C"

Prompt: Param item = O=C1C(c2c[nH]c3ccccc23)C(c2c[nH]c3ccccc23)C(=O)N1c1ccccc1 (stereo not given) ; retrieve measured melting point.
Response: 260 to 263 °C

Prompt: Param item = CC1OC(n2cc(F)c(N)nc2=O)C(O)C1OC(=O)c1ccccc1 (stereo not given) ; retrieve measured melting point.
Response: 127 to 129 °C

Prompt: Param item = C[C@@H](n1ccn(-c2ccc(OC(F)(F)C(F)F)cc2)c1=O)[C@@]1(c2ccc(F)cc2F)CO1 ; retrieve measured melting point.
Response: 117 to 118 °C
